# protocol text: Liver triphosphate pharmacokinetics after single oral dose in CD-1 mice;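 on Ms Liver TP Cmax: pmol/g liver normalized to a 1 µmol/kg dose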
# Type: in vivo
# experimental context: single oral dose 10 mg/kg in PEG 200
parameter measured: Ms Liver TP Cmax

Check out these entries, answers already filled in.
INSERT INTO assay_data (molecule, value_measured) VALUES
  ('CC(C)OP1(=O)OC[C@H]2O[C@@H](n3ccc(=O)[nH]c3=O)[C@](C)(Cl)[C@@H]2O1 (single isomer, unassigned) [Compound 37 Diastereomer 1]', '++++ (100 < ++++)'),
  ('CC(C)(C)C(=O)SCCOP1(=O)OC[C@H]2O[C@@H](n3ccc(=O)[nH]c3=O)[C@](C)(Cl)[C@@H]2O1 (single isomer, unassigned) [Compound 201 Single Diastereomer]', '++++ (100 < ++++)'),
  ('CCOC(=O)[C@H](C)NP(=O)(OC[C@H]1O[C@@H](n2ccc(=O)[nH]c2=O)[C@](C)(Cl)[C@@H]1O)Oc1ccccc1 (single isomer, unassigned; diastereomer 1) [Compound 203ii Diastereomer 1]', '+++ (50 < +++ ≤ 100)'),
  ('CC(C)(C)C(=O)SCCOP1(=O)OC[C@H]2O[C@@H](n3ccc(N)nc3=O)[C@](C)(Cl)[C@@H]2O1 (single isomer, unassigned) [Compound 61 Diastereomer 1]', '+++ (50 < +++ ≤ 100)'),
  ('CC(C)OC(=O)[C@@H](C)NP(=O)(OC[C@H]1O[C@@H](n2ccc(=O)[nH]c2=O)[C@](C)(Cl)[C@@H]1O)SC1CCCC1 (single isomer, unassigned; diastereomer 1) [Compound 206i Diastereomer 1]', '++++ (100 < ++++)');

Q. Provide Ms Liver TP Cmax value for the following molecule: CC(C)OC(=O)[C@@H](C)NP(=O)(OC[C@H]1O[C@@H](n2ccc(=O)[nH]c2=O)[C@](C)(Cl)[C@@H]1O)SC1CCCC1 (single isomer, unassigned; diastereomer 2) [Compound 206i Diastereomer 2]
A. +++ (50 < +++ ≤ 100)

Q. Output Ms Liver TP Cmax of CCOc1nc(N)nc2c1ncn2[C@@H]1O[C@H](COP(=O)(N[C@@H](C)C(=O)OC(C)C)Oc2ccccc2)[C@@H](O)[C@@]1(C)Cl (single isomer, unassigned) [Compound 17ii Diastereomer 2]
A. BLQ

Q. For CC(C)OC(=O)[C@@H](C)NP(=O)(OC[C@H]1O[C@@H](n2ccc(=O)[nH]c2=O)[C@](C)(Cl)[C@@H]1O)Oc1ccccc1 (single isomer, unassigned; diastereomer 2) [Compound 40i Diastereomer 2] , write its Ms Liver TP Cmax.
A. ++++ (100 < ++++)

----------
# protocol text: Liver triphosphate pharmacokinetics after single oral dose in CD-1 mice;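 on Ms Liver TP AUC: pmol·h/g liver normalized to a 1 µmol/kg dose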
# Assay type: in vivo
# experimental context: single oral dose 10 mg/kg in PEG 200
parameter measured: Ms Liver TP AUC

INSERT INTO results (compound, value_measured) VALUES
  ('C[C@@H](NP(=O)(OC[C@H]1O[C@@H](n2ccc(=O)[nH]c2=O)[C@](C)(Cl)[C@@H]1O)Oc1ccccc1)C(=O)OCc1ccccc1 (single isomer, unassigned) [Compound 205i Diastereomer 1]', '++++ (1500 < ++++)'),
  ('CC(C)(C)C(=O)SCCOP1(=O)OC[C@H]2O[C@@H](n3ccc(=O)[nH]c3=O)[C@](C)(Cl)[C@@H]2O1 (single isomer, unassigned) [Compound 201 Single Diastereomer]', '++++ (1500 < ++++)');
